The reported measurements were obtained from patent US8933195B2.

# System: DU145 (human prostate cancer cells)
Value Kind: GI50 (nM)

C/C=C1\NC(=O)c2csc(n2)[C@H](Cc2ccc(O)cc2)NC(=O)C[C@@H](/C=C/CCSC(=O)CCCCCCC)OC(=O)[C@H](C(C)C)NC1=O [Compound 4-4]	2100
C/C=C1\NC(=O)c2csc(n2)[C@H](C)NC(=O)C[C@@H](/C=C/CCSC(=O)CCCCCCC)OC(=O)[C@H](C(C)C)NC1=O [Compound 4-2]	4020
C/C=C1\NC(=O)c2csc(n2)CNC(=O)C[C@@H](/C=C/CCSC(=O)CCCCCCC)OC(=O)[C@H](C(C)C)N(C)C1=O [Compound 5-2]	6410
C/C=C1\NC(=O)c2csc(n2)CNC(=O)C[C@@H](/C=C/CCSC(=O)CCCCCCC)OC(=O)[C@H](Cc2cccc3ccccc23)NC1=O [Compound 1-9]	3
C/C=C1\NC(=O)c2csc(n2)CNC(=O)C[C@@H](/C=C/CCSC(=O)CCCCCCC)OC(=O)[C@H](CSCC)NC1=O [Compound 1-12]	100

P: C/C=C1\NC(=O)c2csc(n2)CNC(=O)C[C@@H](/C=C/CCSC(C)=O)OC(=O)[C@H](C(C)C)NC1=O [Compound 6-2]
Q: C/C=C1\NC(=O)C2C=NC(=N2)CNC(=O)C[C@@H](/C=C/CCSC(=O)CCCCCCC)OC(=O)[C@H](C(C)C)NC1=O (some centres unmarked) [Compound 2-4]
R: C/C=C1\NC(=O)c2csc(n2)CNC(=O)C[C@@H](/C=C/CCSC(=O)CCCCCCC)OC(=O)[C@H](C(C)(C)C)NC1=O [Compound 1-6]
S: C/C=C1\NC(=O)c2csc(n2)CNC(=O)C[C@@H](/C=C/CCSC(=O)CCO)OC(=O)[C@H](C(C)C)NC1=O [Compound 6-5]
List by increasing GI50. Write out the labels following the order that was asked for.
R, S, P, Q

* * *

Recorded GI50 values (DU145 (human prostate cancer cells)) are given below.
Value Kind: GI50 (nM)

A: C/C=C1\NC(=O)c2csc(n2)CNC(=O)C[C@@H](/C=C/CCSC(=O)CCCCCCC)OC(=O)[C@H](C)N(C)C1=O
B: C/C=C1\NC(=O)c2csc(n2)CNC(=O)C[C@@H](/C=C/CCSC(=O)Cc2ccccc2)OC(=O)[C@H](C(C)C)NC1=O
C: C/C=C1\NC(=O)c2csc(n2)CNC(=O)C[C@@H](/C=C/CCSC(=O)CCCCCCC)OC(=O)[C@H](CCSC)NC1=O
Order them by GI50, ascending: the compounds above. Write out the labels following the order that was asked for.
C, B, A
(C: 10 nM, B: 420 nM, A: 650 nM)

A: C/C=C1\NC(=O)c2cccc(c2)CNC(=O)C[C@@H](/C=C/CCSC(=O)CCCCCCC)OC(=O)[C@H](C(C)C)NC1=O
B: C/C=C1\NC(=O)c2csc(n2)CNC(=O)C[C@@H](/C=C/CCSC(=O)CCCCCCCCCCCC)OC(=O)[C@H](C(C)C)NC1=O
Recorded GI50 values differ for A and B ; which one is higher? Lab log: write the label of the selected item as the result.
B
(B: 13600 nM, A: 560 nM)

* * *

# Tested on: DU145 (human prostate cancer cells)
Value Kind: GI50 (nM)

I: CCCCCCCC(=O)SCC/C=C/[C@@H]1CC(=O)NCc2nc(cs2)C(=O)N[C@H](CC)C(=O)N[C@@H](C(C)C)C(=O)O1
II: C/C=C1\NC(=O)c2coc(n2)CNC(=O)C[C@@H](/C=C/CCSC(=O)CCCCCCC)OC(=O)[C@H](C(C)C)NC1=O
III: C/C=C1\NC(=O)c2ccnc(c2)CNC(=O)C[C@@H](/C=C/CCSC(=O)CCCCCCC)OC(=O)[C@H](C(C)C)NC1=O
Order them by GI50, ascending: the compounds above. Write out the labels following the order that was asked for.
III, II, I
(III: 6 nM, II: 50 nM, I: 1060 nM)
